Values from ChEMBL document CHEMBL3046293

System: Podosphaera fuliginea
Experiment: Fungicidal activity against Podosphaera fuliginea assessed as cucumber powdery mildew disease control at 500 ppm treated 24 hr before inoculation by preventive manner
Format: functional
VALUE_KIND: Activity

CNC(=O)C(OC)c1cccc(COc2ccc(C)cc2OC)c1 (configuration not stated) | <90%
CNC(=O)C(OC(C)=O)c1cccc(COc2cc(C)ccc2C)c1 (configuration not stated) | <90%

# return Activity for each item in the list
1. COC(=O)C(OC)c1cccc(Oc2cc(C)cc(C)c2)c1 (configuration not stated)
2. CNC(=O)C(OC)c1cccc(Oc2ccc(C)cc2)c1 (configuration not stated)
3. COC(=O)C(OC)c1cccc(COc2cc(C)ccc2C)c1 (configuration not stated)
4. CNC(=O)C(OC)c1cccc(OCc2ccc(Cl)cc2)c1 (configuration not stated)

Result ::
1: 90%; 2: <90%; 3: <90%; 4: <90%

# return Activity for each item in the list
1. CNC(=O)C(OC)c1cccc(COc2cc(C)cc(C)c2)c1 (configuration not stated)
2. CCCCNC(=O)C(OC)c1cccc(COc2cc(C)ccc2C)c1 (configuration not stated)

Result ::
["<90%", "<90%"]

# return Activity for each item in the list
1. CNC(=O)C(OC)c1cccc(CSc2cc(C)ccc2C)c1 (configuration not stated)
2. CNC(=O)C(OC)c1cccc(COc2c(C)cccc2C)c1 (configuration not stated)
3. CCc1ccccc1OCc1cccc(C(OC)C(=O)OC)c1 (configuration not stated)

Result ::
["90%", "<90%", "<90%"]

Query :: I have this molecule here, COC(=O)C(OC)c1cccc(Oc2ccc(C)c(C)c2)c1 (configuration not stated) , and I need its recorded Activity.
Result :: 90%
